testTarget: Human AhR (Homo sapiens, UniProt P35869)
Sequence (P35869 11-848): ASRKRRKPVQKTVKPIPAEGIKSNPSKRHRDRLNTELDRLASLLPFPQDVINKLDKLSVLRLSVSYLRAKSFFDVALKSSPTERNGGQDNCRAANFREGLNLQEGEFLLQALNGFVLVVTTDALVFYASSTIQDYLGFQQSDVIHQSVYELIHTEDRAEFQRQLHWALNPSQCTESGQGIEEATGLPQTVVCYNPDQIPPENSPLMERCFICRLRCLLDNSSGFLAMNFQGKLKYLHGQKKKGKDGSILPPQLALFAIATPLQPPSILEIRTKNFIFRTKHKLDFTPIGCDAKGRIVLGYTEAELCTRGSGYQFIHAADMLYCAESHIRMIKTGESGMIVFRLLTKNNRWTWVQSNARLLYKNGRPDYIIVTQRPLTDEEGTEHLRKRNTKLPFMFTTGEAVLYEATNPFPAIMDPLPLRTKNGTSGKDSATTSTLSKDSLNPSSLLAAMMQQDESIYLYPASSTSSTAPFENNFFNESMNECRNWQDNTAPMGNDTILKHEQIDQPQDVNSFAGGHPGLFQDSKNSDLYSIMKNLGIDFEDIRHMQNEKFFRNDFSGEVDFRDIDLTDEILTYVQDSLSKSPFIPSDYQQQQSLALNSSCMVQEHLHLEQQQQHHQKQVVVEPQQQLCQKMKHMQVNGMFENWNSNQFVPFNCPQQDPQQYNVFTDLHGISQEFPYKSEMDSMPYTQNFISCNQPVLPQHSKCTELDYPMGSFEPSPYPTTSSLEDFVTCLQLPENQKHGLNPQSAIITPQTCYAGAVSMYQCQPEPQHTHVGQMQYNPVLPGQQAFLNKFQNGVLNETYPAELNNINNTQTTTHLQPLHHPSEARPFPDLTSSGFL
assayMethodText: Transactivation assay in human cell line (in vitro assay 1): antagonism
conditionDescription: U87 glioblastoma cells, AHR inducible firefly luciferase reporter (DRE), 150 μM kynurenic acid, 20 hours
attributeMeasured: IC50 (µM)

- structure: "C[C@@H](CO)NC(=O)c1cc(-c2cccc(F)c2)nc(-c2ccc(C(F)(F)F)cc2)n1"
  testTarget: "Human AhR (Homo sapiens, UniProt P35869)"
  IC50 / µM: 0.0153

(1) Cc1cc(F)cc(-c2nc(C(=O)N[C@@H](C)CO)cc(-c3ccc(Cl)cc3)n2)c1
(2) CC(C)(O)CNC(=O)c1cc(-c2ccc(Cl)cc2)nc(-c2ccc(F)c(C#N)c2)n1
(3) C[C@@H](CO)NC(=O)c1cc(-c2ccc(OC(F)(F)F)cc2)nc(-c2cccc(F)c2)n1
(4) C[C@@H](CO)NC(=O)c1cc(-c2ccc(Cl)cc2)nc(-c2ccc(OC(F)(F)F)cc2)n1
(5) C[C@@H](CO)NC(=O)c1cc(-c2ccc(Cl)cc2)nc(-c2ccc(Cl)c(Cl)c2)n1
Prompt: List by increasing IC50. Reply with the labels, ordered as the question asks.
Completion: 3, 1, 2, 5, 4

(1) C[C@@H](CO)NC(=O)c1cc(-c2ccc(Cl)cc2)nc(-c2cc(F)cc(C(F)(F)F)c2)n1
(2) C[C@@H](CO)NC(=O)c1cc(-c2ccc(Cl)cc2)nc(-c2ccc(F)c(Cl)c2)n1
Prompt: Select one: 1 or 2 . Criterion: greater recorded IC50. Mark your selection by writing its label.
Completion: 1
(1: 0.0978 µM, 2: 0.0235 µM)

(P) CC(C)(O)CNC(=O)c1cc(-c2ccc(Cl)cc2)nc(-c2cc(Cl)cc(Cl)c2)n1
(Q) CC(C)(O)CNC(=O)c1cc(-c2ccc(OC(F)(F)F)cc2)nc(-c2ccc(Cl)cc2)n1
Prompt: Which has the smaller recorded IC50, P or Q ? Could you answer with the label of the item you picked?
Completion: P
(P: 0.101 µM, Q: 0.234 µM)

(P) COc1cc(F)cc(-c2nc(C(=O)N[C@@H](C)CO)cc(-c3ccc(Cl)cc3)n2)c1
(Q) COc1ccc(-c2nc(C(=O)NCC(C)(C)O)cc(-c3ccc(OC(F)(F)F)cc3)n2)cc1
Prompt: Between these two entries, P and Q , state which has the higher IC50. Please respond with the label that marks your chosen entry.
Completion: Q
(Q: 0.39 µM, P: 0.0368 µM)

(P) Cc1cccc(-c2nc(C(=O)N[C@@H](C)CO)cc(-c3ccc(OC(F)(F)F)cc3)n2)c1
(Q) C[C@@H](CO)NC(=O)c1cc(-c2ccc(OC(F)(F)F)cc2)nc(-c2ccc(F)c(C#N)c2)n1
Prompt: Which entry has a larger number for IC50, P or Q ? State your choice using its label.
Completion: Q

Numbers sourced from patent US11524944B2.
